TEST_PROTOCOL: soluble on expression in E. coli; label from the status in PepcDB or PDB records

| ENTRY_SEQUENCE | soluble on expression in E. coli |
| --- | --- |
| MGSDKIHHHHHHMGGRGSGKTRAGAEWVSGMALGLPPFAGKPSGHIALVGETFNDAREVMVDGPSGILSVSRLVRPRYEASRRRLIWDNGAVATLFSSEDPDSLRGPQFDAAWCDELAKWKNPQETWDMLQFGLRLGDNPRQVVTTTPRAVPLLKALLTDRTVSMTHMRTAENAGNLAEGFMQTIARRYAGTRLGRQELDGELVEERPGALWSRDRIEQCFEENPPPLARIVVAVDPPASSGKASDACGIVVAGIDAEGVGHVLADESMTMAKPHQWARRAIALYHTHEADAIVAEVNQGGEMVAAEDPSVPVLKRRASRGKWLRAEPVAALYEQGRVRHAGRFPALEDEMCDFAPEGLSSGRSPDRLDALVWALGELMLGADHKPRIRRFG | not soluble |
| MGSDKIHHHHHHMADKKRLDQLVLERGLVESREKAKVLILAGKVLVNGERVTKASKLVPEDANVELLEEPKYVSRGGYKLESAFESFKIDVSGKVACDIGASTGGFTDFLLQRGAKKVYAVDVGYGQLHWKLRNDPRVVVMEKVNARYLNPDDLGEKVDVVTCDVSFISLKKIIPAISRILKNIGDAVLLVKPQFEAPRKFVKKGIVKDPGVHLEVLEEIRKSLIENGFVVKGCCFSKIKGTEGNIEYFFWVKKEGENAEIDLRKIVEEAWRFFGERER | not soluble |

====

TEST_PROTOCOL: soluble on expression in E. coli; label from the status in PepcDB or PDB records
RECORDED_ENDPOINT: soluble on expression in E. coli

| ENTRY_SEQUENCE | RESULT |
| --- | --- |
| MGSDKIHHHHHHMEFIPPKRLLELIRQYSTTFENWHSVMLSIYLHKERIKCKLRNGQLLYLKPNEIVLLAGLKIVELNEDSVRFQFNGREICLKGWKLSYPGDSFSDYWRIDVRGKRVLDIGAGIGDSPIYFSIAGAKEVVAVEVDSKKVELMRENLKANSINNVIVVDKGVGIKDDENYISWPKLISNYGPFDVAKIDCDGCEKIIVPYIKEIPSLLIEWDYNYKDIVSNLTKNGYKVKVEHTLKNLGFIYAKKR | not soluble |
| VLSAIGIVPSAPVLVPELAGAAAAELADLGAAVIAAASLLPKSWIAVGTGRADDVVRPTDVGTFAGFGADVRVGLAPQDGDGVAVPVELPLCALLTAWVRGQARPEARAQVHVYASDHGSDAAVARGRQLRADIDREPDPIGVLVVADGLNTLTPRAPGGYDPDGAGMQRALDDALASGDLAVLTRLPAQVLGRVAFQVLAGLAEPGPRSAKEFYRGAPHGVGYFAGVWQP | not soluble |
| GSSHHHHHHSSGLVPRGSHMSVQNVVLFDTQPLTLMLGGKLSYINVAYQTYGTLNDEKNNAVLICHALTGDAEPYFDDGRDGWWQNFMGAGLALDTDRYFFISSNVLGGCKGTTGPSSINPQTGKPYGSQFPNIVVQDIVKVQKALLEHLGISHLKAIIGGSFGGMQANQWAIDYPDFMDNIVNLCSSIYFSAEAIGFNHVMRQAVINDPNFNGGDYYEGTPPDQGLSIARMLGMLTYRTDLQLAKAFGRATKSDGSFWGDYFQVESYLSYQGKKFLERFDANSYLHLLRALDMYDPSLGYENVKEALSRIKARYTLVSVTTDQLFKPIDLYKSKQLLEQSGVDLHFYEFPSDYGHDAFLVDYDQFEKRIRDGLAGN | soluble |
| GPRRTRTTFTSSQIAELEQHFLQGRYLTAPRLADLSAKLALGTAQVKIWFKNRRRRHKIQSDQHKDQS | soluble |
| MLYIPQFSIYFCLGYLLLFCKISNAVKQSWEINQELITEANKEHTVFGDMLLTPAQLIRYENSKDSDLSIRGVSIKGSSMNRWSNNIVPYVISPQYSPAQKQILVSSLRYFERVSCFKFVERTTQNDYLFIVPLDGCYSYVGKIGGRQTLSLAADCIADYIIWHEMMHAIGFEHEHQRPDRDSFIRVDYANVIPGQMINFDKLKTSHVEYPDIYDFKSIMHYDGYAFGRVDTARRVRLATMTPLKPGVTLEDNMKFTATDIEKLNRLGQCGARGGQYSNQGVVASTCQDVATAVSCEGNRRRGMCKNPFYKQMMIKSCQKTCRLCSYTRMIDEDDDLTPNTTVKSVKCEDKHPRCDIYSHNGFCTLPFYDDVRYQLCAKTCNLC | not soluble |
| ASNFEEFVLVDNGGTGDVKVAPSNFANGVAEWISSNSRSQAYKVTCSVRQSSANNRKYTVKVEVPKVATQVQGGVELPVAAWRSYMNMELTIPVFATNDDCALIVKALQGTFKTGNPIATAIAANSGIY | soluble |
| GPGSMTSTVTAVNQTQSLAAIRNFVRASVSCITYARGLCSDNAYEQRPFLGLPLRQLIPSTTESITISEWIEKGAFDALNRNYLKEMSLCVYDAACHELLESYCFGFNYTGDGERAQMTLNASQTIADGSKTTAVSQSSGGAVGIPAYRKRRCTKQEVQHLLTSILERLMDVVESLPPLLSERVLTMRLTYYDAVTPASYEPPCFAPASEHMARLYQAEVKHHVNIGSMDTSHHLFSVAIRHPLLQQIHRQMTGRTTSAVATKT | not soluble |
